Recorded IC50 values (Beta-secretase 1 (Homo sapiens, UniProt P56817)) are given below.
The answer is to be given in µM; state only the numeric part.

Below, each entry is followed by its recorded IC50 result.
CN(c1cc(/C=C/C2CC2)cc(C(=O)N[C@@H](Cc2ccccc2)[C@H](O)CNC2CC2)c1)S(C)(=O)=O: 0.73
CN(c1cc(CCC2CC2)cc(C(=O)N[C@@H](Cc2ccccc2)[C@H](O)CNC2CC2)c1)S(C)(=O)=O: 0.42
CN(c1cc(C(=O)N[C@@H](Cc2ccccc2)[C@H](O)CNC2CC2)cc(C(=O)C2CCCCC2)c1)S(C)(=O)=O: 0.45
CN(c1cc(C(=O)N[C@@H](Cc2ccccc2)[C@H](O)CNC2CC2)cc(C(=O)C2CCCC2)c1)S(C)(=O)=O: 0.18
CCC(=O)c1cc(C(=O)N[C@@H](Cc2ccccc2)[C@H](O)CNC2CC2)cc(N(C)S(C)(=O)=O)c1: 1.5

// moving on: another record for IC50
Reported Beta-secretase 1 (Homo sapiens, UniProt P56817) IC50 for item "CC(C)C(=O)c1cc(C(=O)N[C@@H](Cc2ccccc2)[C@H](O)CNC2CC2)cc(N(C)S(C)(=O)=O)c1" was 0.24
